# Target Or System: T1, PUF4 RNA-binding domain (Saccharomyces cerevisiae, UniProt P25339 537-888)
# T1 sequence: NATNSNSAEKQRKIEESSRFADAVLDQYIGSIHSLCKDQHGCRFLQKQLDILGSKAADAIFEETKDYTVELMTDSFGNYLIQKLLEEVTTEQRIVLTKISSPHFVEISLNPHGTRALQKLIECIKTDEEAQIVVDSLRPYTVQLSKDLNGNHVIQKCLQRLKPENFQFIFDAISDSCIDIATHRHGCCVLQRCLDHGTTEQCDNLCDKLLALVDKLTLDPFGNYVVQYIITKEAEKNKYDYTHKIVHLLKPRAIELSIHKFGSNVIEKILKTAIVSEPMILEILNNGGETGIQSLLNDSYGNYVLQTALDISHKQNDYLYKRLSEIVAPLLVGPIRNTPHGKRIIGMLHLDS
# Assay Summary: Mg; RNA-MaP; 20 mM Na-HEPES pH 7.4, 30 mM KOAc, 0.75 mM MgCl2, 0.1% Tween-20, 5% glycerol, 0.1 mg/mL BSA, 2 mM DTT; 25 C; 0.0125-409.6 nM protein
# Condition Label: tags: N-His6-TEV cleaved; C-SNAP kept, Cy3B-labelled; label: tethered on chip by stalled RNA polymerase
pKd: −log10 of the molar value.
Cut-off 6 on pKd, inclusive. At or above means True; below means False.

stdin: Can UCUCUUCUUGUAUACUAUAUCUCUU (ssRNA) [Ie_S1_P3E.2_K3.1_C3.2_H3.1_A3.1_[+6C]_F3.1_T3.2] be said to have pKd at or above 6?
stdout: True

stdin: Identify whether the reported pKd of the following binder is 6 or greater: ACAAACAUUAUAUUAUUAGAACAAAC (ssRNA) [Id_ii_S3_P5E.3_K5.2_C5.2_[C-2A]_H5.2_A5.1_F5.1_T5.2_[T11G]]
stdout: True

stdin: Is pKd for Ic_S2_P4E.1_K4.1_C4.1_H4.1_A4.1_[T5G]_[A6T]_[T7G]_F4.1_[T8C]_[A9G]_T4.1 (ssRNA) RNA: UUUGAUUAAUAUGAUAUCGUUCUUUCUUGUAGUGCGUUCUUUCUCGAUAUCAUAUUAAUCUUU at or above 6?
stdout: True

stdin: Textbook exercise: given the entry Ic_S4_P5E.1_K5.1_C5.1_H5.1_A5.1_[T6A]_[A7T]_F5.1_[T8C]_[T9G]_[A10G]_T5.1 (ssRNA) RNA: UUUGACAACUGAUCGUUCUUUCUUGUAUAUCGGUUCUUUCUCGAUCAGUUGUCUUU , state whether its pKd is greater than or equal to 6.
stdout: True

stdin: Is the recorded value of pKd equal to or greater than 6 for this binder? UCUCUUUGUAGUCAUCUCUU (ssRNA) [Ic_S1_P3E.1_K3.1_C3.1_H3.1_A3.1_[T5G]_[A6T]_F3.1_[T7C]_T3.1]
stdout: False
